- assay: Half life in C57BL/6 mouse at 5 mg/kg, iv and 10 mg/kg, po
- Format: ADME, organism-based
- particulars: in vivo
measured_property: half-life (h)
Reply numerically in h, unit not repeated.

Query block: Recorded half-life for C1Cc2[nH]nc(-c3nnn[nH]3)c2C1 , please?
Result block: 10

* * *

- assay: Oral bioavailability in C57BL/6 mouse at 10 mg/kg, po
- Type: ADME, organism-based
- particulars: in vivo
measured_property: bioavailability
Answers without a unit are incomplete; give the number and then its unit.

Query block: Recorded bioavailability for C1Cc2[nH]nc(-c3nnn[nH]3)c2C1 , please?
Result block: 93%

* * *

- assay: Volume of distribution in C57BL/6 mouse at 5 mg/kg, iv and 10 mg/kg, po
- Assay type: ADME, organism-based
- particulars: in vivo
measured_property: Vd (L/kg)
Reply numerically in L/kg, unit not repeated.

Query block: Recorded Vd for C1Cc2[nH]nc(-c3nnn[nH]3)c2C1 , please?
Result block: 13

* * *

- assay: Tmax in C57BL/6 mouse at 5 mg/kg, iv and 10 mg/kg, po
- Assay type: ADME, organism-based
- particulars: in vivo
measured_property: Tmax

Query block: Recorded Tmax for C1Cc2[nH]nc(-c3nnn[nH]3)c2C1 , please?
Result block: 4.98 min
